Assay: In vitro rat microsomal stability assay
Type: in vitro ADME, rat (Sprague-Dawley)
Conditions: Sprague-Dawley, rat, 0.5 h, 0.5 μM, pH 7.4
Recorded RAT MICROSOMAL STABILITY (% REMAINING AFTER 30 MINUTES) values for a group of molecules are listed next.

Solved cases below.
O=C1CC(c2cc(C(F)(F)F)ccn2)([C@@H](O)c2ccccn2)C1 [Example 278]; >85%
OC(c1ccccn1)C1(c2ccc(C(F)(F)F)cc2)CCCO1 (stereo not drawn) [Example 88]; 7.0%
Nc1cccnc1C(O)C1(c2ccc(Cl)c(Cl)c2)CCC1 (stereo not drawn) [Example 130]; <0.01%
N[C@@H]1CCC[C@H]1[C@@H](O)C1(c2ccc(Cl)c(Cl)c2)CCC1 [Example 220]; 67%
OC(c1ccccn1)C1(c2cccc(C(F)(F)F)c2)CCC1 (stereo not drawn) [Example 6]; 2.3%

Input line: Dear colleague, I am looking for the recorded RAT MICROSOMAL STABILITY (% REMAINING AFTER 30 MINUTES) of the following molecule: O=C1CC(c2ccnc(C(F)(F)F)c2)(C(O)c2ccccn2)C1 (stereo not drawn) [Example 298]
Output line: 59%

Input line: Dear colleague, I am looking for the recorded RAT MICROSOMAL STABILITY (% REMAINING AFTER 30 MINUTES) of the following molecule: O=C1CC(c2cc(C(F)(F)F)ccn2)([C@H](O)c2ccccn2)C1 [Example 277]
Output line: >85%

Input line: Dear colleague, I am looking for the recorded RAT MICROSOMAL STABILITY (% REMAINING AFTER 30 MINUTES) of the following molecule: O[C@H](c1ccccn1)C1(c2cc(C(F)(F)F)ccn2)CCC1 [Example 123]
Output line: 11%

---

Recorded pIC50 values for a group of compounds are listed next.
Biological target: human TRPV3 (Homo sapiens, UniProt Q8NET8)
Construct: expressed in transfected cells
Sequence (Q8NET8 whole entry): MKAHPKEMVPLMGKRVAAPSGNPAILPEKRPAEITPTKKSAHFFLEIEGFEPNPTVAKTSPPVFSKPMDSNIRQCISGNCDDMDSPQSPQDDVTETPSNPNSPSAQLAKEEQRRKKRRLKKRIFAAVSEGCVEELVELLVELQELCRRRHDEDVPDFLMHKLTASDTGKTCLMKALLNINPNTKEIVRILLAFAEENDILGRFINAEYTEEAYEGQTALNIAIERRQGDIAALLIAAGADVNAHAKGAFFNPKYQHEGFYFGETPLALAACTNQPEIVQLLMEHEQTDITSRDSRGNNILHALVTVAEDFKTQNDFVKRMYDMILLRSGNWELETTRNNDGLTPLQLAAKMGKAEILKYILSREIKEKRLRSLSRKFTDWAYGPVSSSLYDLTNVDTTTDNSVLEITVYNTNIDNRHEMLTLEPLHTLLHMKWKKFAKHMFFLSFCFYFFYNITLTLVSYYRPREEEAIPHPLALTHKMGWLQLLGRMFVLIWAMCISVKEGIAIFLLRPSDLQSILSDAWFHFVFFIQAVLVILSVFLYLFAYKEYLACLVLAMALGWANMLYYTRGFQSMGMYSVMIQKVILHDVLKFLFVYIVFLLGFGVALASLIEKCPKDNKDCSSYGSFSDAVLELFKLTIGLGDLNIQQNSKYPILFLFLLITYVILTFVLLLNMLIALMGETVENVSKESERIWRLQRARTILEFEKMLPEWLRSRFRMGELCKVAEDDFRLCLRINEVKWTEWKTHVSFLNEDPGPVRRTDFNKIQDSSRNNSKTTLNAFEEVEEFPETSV
Assay: In vitro antagonism of recombinant human TRPV3 activation (FLIPR Tetra calcium assay, 2-APB as agonist)
Format: cell-based
Details: HEK293 cells stably expressing human TRPV3; 2-APB 80 μM; range class; read-out: IC50 (reported range)
pIC50: −log10 of the molar value.

Solved cases below.
OC(c1ccccn1)C1(c2ccccc2OC(F)(F)F)CCC1 (centres unmarked); 5.30 to 5.96
OC(c1ccccn1)C1(c2ccc(Cl)cc2)CCOCC1 (centres unmarked); 5.30 to 5.96
O=C1CC(c2ccc(F)c(Cl)c2)(C(O)c2ccccn2)C1 (centres unmarked); 4.70 to 5.29
COC1CC(c2ccc(Cl)c(Cl)c2)([C@H](O)c2ccccn2)C1 (some centres unmarked); 5.30 to 5.96
OC(c1ccccn1)C1(c2ccc(Cl)c(Cl)c2)CCOCC1 (centres unmarked); 5.30 to 5.96
OC(c1ccccn1)C1(c2ccc(OC(F)(F)F)cc2)CCOCC1 (centres unmarked); 5.30 to 5.96
OC(c1ccccn1)C1(c2cccc(OC(F)(F)F)c2)CCNCC1 (centres unmarked); 5.30 to 5.96
Cc1ccc(CC2(C(O)c3ccccn3)CCC2)cc1 (centres unmarked); 5.30 to 5.96

Input line: Dear colleague, I am looking for the recorded pIC50 of the following compound: CC1(O)CC(c2ccc(OC(F)(F)F)cc2)(C(O)c2ccccn2)C1 (single isomer, unassigned) [Example 134]
Output line: 6.00 to 6.30

Input line: Dear colleague, I am looking for the recorded pIC50 of the following compound: COC1CC(c2ccc(Cl)c(Cl)c2)(C(O)c2ccccn2)C1 (centres unmarked)
Output line: 5.30 to 5.96

Input line: Dear colleague, I am looking for the recorded pIC50 of the following compound: NC1CCCCC1C(O)C1(c2ccc(C(F)(F)F)cc2)CCC1 (centres unmarked)
Output line: 5.30 to 5.96
